Tested on: Helicobacter pylori
test_details: Antibacterial activity against Helicobacter pylori strain 3 assessed as diameter of growth inhibition zone at 32 ug/disk after 3-5 days by filter paper disk diffusion method
Format: functional
experimental_parameters: read-out: DIZ
Would you kindly list zone of inhibition at 32 µg/disc for each of these compounds?
One number for each entry, in mm.

| compound | measured_property | unit | test_result |
| --- | --- | --- | --- |
| Cn1c(/C=C2\S/C(=N/c3nc4ccccc4s3)NC2=O)ccc1[N+](=O)[O-] | zone of inhibition at 32 µg/disc | mm | 26 |
| COc1ccc(-c2csc(/N=C3\NC(=O)/C(=C/c4ccc([N+](=O)[O-])n4C)S3)n2)cc1 | zone of inhibition at 32 µg/disc | mm | 6 |
| COc1ccc(-c2csc(/N=C3\NC(=O)/C(=C/c4ccc([N+](=O)[O-])o4)S3)n2)cc1 | zone of inhibition at 32 µg/disc | mm | 19 |
| O=C1N/C(=N\c2nc(-c3ccccc3)cs2)S/C1=C\c1ccc([N+](=O)[O-])o1 | zone of inhibition at 32 µg/disc | mm | 18 |
| COc1ccc(-c2csc(/N=C3\NC(=O)/C(=C/C4C(=O)Nc5ccccc54)S3)n2)cc1 (centres undefined) | zone of inhibition at 32 µg/disc | mm | 6 |
| O=C1N/C(=N\c2nccs2)S/C1=C\c1ccc([N+](=O)[O-])s1 | zone of inhibition at 32 µg/disc | mm | 40 |
| Cn1c(/C=C2\S/C(=N/c3nc(-c4ccccc4)cs3)NC2=O)ccc1[N+](=O)[O-] | zone of inhibition at 32 µg/disc | mm | 6 |

Consider the record given below.
Data request: Please give the documented zone of inhibition at 32 µg/disc of O=C1N/C(=N\c2nc3ccccc3s2)S/C1=C\C1C(=O)Nc2ccccc21 (centres undefined)
Data returned: 6

* * *

System: Helicobacter pylori
test_details: Antibacterial activity against Helicobacter pylori strain 2 assessed as diameter of growth inhibition zone at 64 ug/disk after 3-5 days by filter paper disk diffusion method
Type: functional
experimental_parameters: read-out: DIZ
For each record, write down the corresponding zone of inhibition at 64 µg/disc.

Solved cases below.
| chemical_string | test_result |
| --- | --- |
| O=C1N/C(=N\c2nccs2)S/C1=C\c1ccc([N+](=O)[O-])s1 | 34 mm |
| Cn1c(/C=C2\S/C(=N/c3nc(-c4ccccc4)cs3)NC2=O)ccc1[N+](=O)[O-] | 6 mm |
| O=C1N/C(=N\c2nccs2)S/C1=C\c1ccc([N+](=O)[O-])o1 | > 50 mm |

Now look at this entry.
Data request: Given the compound "COc1ccc(-c2csc(/N=C3\NC(=O)/C(=C/c4ccc([N+](=O)[O-])o4)S3)n2)cc1" , write its reported zone of inhibition at 64 µg/disc.
Data returned: 20 mm

* * *

Test system: Helicobacter pylori
test_details: Antibacterial activity against Helicobacter pylori strain 3 assessed as diameter of growth inhibition zone at 32 ug/disk after 3-5 days by filter paper disk diffusion method
Type: functional
experimental_parameters: read-out: DIZ
measured_property: zone of inhibition at 32 µg/disc (mm)
Numbers only, in mm.

The examples below pair each entry with its known result.
| compound | zone of inhibition at 32 µg/disc / mm |
| --- | --- |
| O=C1N/C(=N\c2nccs2)S/C1=C\C1C(=O)Nc2ccccc21 (centres undefined) | 14 |
| COc1ccc(-c2csc(/N=C3\NC(=O)/C(=C/c4ccc([N+](=O)[O-])s4)S3)n2)cc1 | 30 |

Data request: Consider the compound "O=C1N/C(=N\c2nc3ccccc3s2)S/C1=C\c1ccc([N+](=O)[O-])o1" and give its recorded zone of inhibition at 32 µg/disc.
Data returned: 30
